// data source = patent US7388017B2

Ki values for the compounds below.
- SYSTEM TESTED: HCV NS3 protease (Hepatitis C virus genotype 1a)
- Construct: more particularly HCV NS3 proteases
- METHOD NOTES: Enzyme inhibition of HCV NS3 serine protease (cleavage of peptide substrate / EDVV AbuC-p-nitroanilide, with or without NS4A)
- Type: biochemical
- PROTOCOL CONDITIONS: Enzyme inhibition data; Ki from rate vs [inhibitor] plots, Morrison tight binding competitive inhibition fit; 30 C, pH 7.8; read-out: Ki
Starred links: 1 amine or outer side, 2 acyl side, 3 side chain; linkers in the order of their positions; H or OH if unused. Non-standard residues stand in square brackets, D forms with d. Residues, ends and D or L forms follow the SMILES beside them. Groups on a side chain read outwards from the residue. *: point of attachment. Pyrazinecarbonyl = O=C(c1cnccn1)*; Hyp = O=C(O)[CH]1C[CH](O)CN1; X6 = Nc1c(Cl)cc(N*)cc1Cl; Abu = CC[CH](N)C(=O)O; CO = O=C([*:1])[*:2]

The examples below pair each entry with its known result.
CCOc1ccc2ccccc2c1C(=O)NC(C(=O)N1CC(OCc2ccccc2)CC1C(=O)NC(C=O)CC)C(C)C (stereo not shown) = 1 to 100 µM
CCC(C=O)NC(=O)C1CC(OCc2ccccc2)CN1C(=O)C(NC(=O)Cc1csc(N)n1)C(C)C (stereo not shown) = 1 to 100 µM
CCC(C=O)NC(=O)C1CC(OC(=O)Nc2cc(Cl)c(N)c(Cl)c2)CN1C(=O)C(NC(=O)C(NC(=O)c1cnccn1)C(C)C)C(C)C (stereo not shown) [Compound 33] (Pyrazinecarbonyl-VV[Hyp]([CO-X6])[Abu]-aldehyde; configuration not given here) = > 100 µM

Shift focus to the following entry.
input: Quick one: Ki for CCC(C=O)NC(=O)C1CC(OCc2ccccc2)CN1C(=O)C(NS(=O)(=O)c1ccccc1)C(C)C (stereo not shown) ?
output: > 100 µM

---

The following molecules are listed with their measured pKi values.
- SYSTEM TESTED: HCV NS3 protease (Hepatitis C virus genotype 1a)
- Construct: more particularly HCV NS3 proteases
- METHOD NOTES: Enzyme inhibition of HCV NS3 serine protease (cleavage of peptide substrate / EDVV AbuC-p-nitroanilide, with or without NS4A)
- Type: biochemical
- PROTOCOL CONDITIONS: Enzyme inhibition data; Ki from rate vs [inhibitor] plots, Morrison tight binding competitive inhibition fit; 30 C, pH 7.8; read-out: Ki
pKi: −log10 of the molar value. Starred links: 1 amine or outer side, 2 acyl side, 3 side chain; linkers in the order of their positions; H or OH if unused. Non-standard residues stand in square brackets, D forms with d. Residues, ends and D or L forms follow the SMILES beside them. ξ: configuration not given here. *: point of attachment. ξ(3-Amino-2-oxopentanoyl) = CCC(N[*:1])C(=O)C(=O)[*:2]; Pyrazinecarbonyl = O=C(c1cnccn1)*; Hyp = O=C(O)[CH]1C[CH](O)CN1; NHPhenethyl = c1ccc(CCN*)cc1; X15 = Clc1cc2c(cc1C*)OCO2; Abu = CC[CH](N)C(=O)O

CCC(C=O)NC(=O)C1CC(OCc2cc3c(cc2Cl)OCO3)CN1C(=O)C(NC(=O)C(NC(=O)c1cnccn1)C(C)C)C(C)C (centres unmarked) [Compound 13] (Pyrazinecarbonyl-VV[Hyp](X15)[Abu]-aldehyde; configuration not given here) = 4.00 to 6.00
CCC(NC(=O)C(CC(C)C)NC(=O)C(NC(=O)C(NC(=O)c1cnccn1)C(C)C)C(C)C)C(=O)C(=O)N[C@H](C)c1ccccc1 (some centres unmarked) = 4.00 to 6.00
CCC(NC(=O)C(CC(C)C)NC(=O)C(NC(=O)C(NC(=O)C(CC(=O)O)NC(=O)C(CCC(=O)O)NC(C)=O)C(C)C)C(C)C)C(=O)C(=O)NCCc1ccccc1 (centres unmarked) [Compound 104] (Ac-EDVVL[ξ(3-Amino-2-oxopentanoyl)]-NHPhenethyl; configuration not given here) = > 6.00
CCC(C=O)NC(=O)C1CC(NC(=O)N2CCOCC2)CN1C(=O)C(NC(=O)C(NC(=O)c1cnccn1)C(C)C)C(C)C (centres unmarked) = 4.00 to 6.00

Here's the next entry for you.
input: Returns the measured pKi for the input molecule. Input: CCC(C=O)NC(=O)C1CC(NCc2ccccc2)CN1C(=O)C(NC(=O)C(NC(=O)c1cnccn1)C(C)C)C(C)C (centres unmarked)
output: < 4.00

---

- SYSTEM TESTED: HCV NS3 protease (Hepatitis C virus genotype 1a, UniProt P27958)
- Construct: more particularly HCV NS3 proteases
- Sequence (P27958 1027-1208): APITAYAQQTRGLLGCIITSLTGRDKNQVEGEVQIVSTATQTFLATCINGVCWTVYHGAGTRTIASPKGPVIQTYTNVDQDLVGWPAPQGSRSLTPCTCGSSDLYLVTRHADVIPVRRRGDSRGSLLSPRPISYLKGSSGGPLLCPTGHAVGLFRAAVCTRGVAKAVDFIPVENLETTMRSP
- METHOD NOTES: Enzyme inhibition of HCV NS3 serine protease (cleavage of peptide substrate / EDVV AbuC-p-nitroanilide, with or without NS4A)
- Type: biochemical
- PROTOCOL CONDITIONS: Enzyme inhibition data; Ki from rate vs [inhibitor] plots, Morrison tight binding competitive inhibition fit; 30 C, pH 7.8; read-out: Ki
pKi: −log10 of the molar value. Starred links: 1 amine or outer side, 2 acyl side, 3 side chain; linkers in the order of their positions; H or OH if unused. Non-standard residues stand in square brackets, D forms with d. Residues, ends and D or L forms follow the SMILES beside them. Groups on a side chain read outwards from the residue. ξ: configuration not given here. *: point of attachment. ξ(3-Amino-2-oxopentanoyl) = CCC(N[*:1])C(=O)C(=O)[*:2]; Pyrazinecarbonyl = O=C(c1cnccn1)*; Hyp = O=C(O)[CH]1C[CH](O)CN1; X3 = c1ccc(-c2ccccc2N*)cc1; X9 = COc1ccc(OC)c(N*)c1; Abu = CC[CH](N)C(=O)O; CO = O=C([*:1])[*:2]; Bn = c1ccc(C*)cc1; NHPr = CCCN*
Catalogue of pKi readings, one per entry.

Worked examples, 5 compounds total:
CCC(C=O)NC(=O)C1CC(OCc2ccccc2)CN1C(=O)C(NC(=O)C(Cc1c[nH]cn1)NC(=O)c1cnccn1)C(C)C (stereo not drawn) [Compound 134] (Pyrazinecarbonyl-HV[Hyp](Bn)[Abu]-aldehyde; configuration not given here) = < 4.00
CCC(C=O)NC(=O)C1CC(OCc2ccccc2)CN1C(=O)C(NC(=O)C(Cc1ccccc1)NC(=O)c1cnccn1)C(C)C (stereo not drawn) [Compound 141] (Pyrazinecarbonyl-FV[Hyp](Bn)[Abu]-aldehyde; configuration not given here) = 4.00 to 6.00
CCC(C=O)NC(=O)C1CC(OC(=O)Nc2ccccc2-c2ccccc2)CN1C(=O)C(NC(=O)C(NC(=O)c1cnccn1)C(C)C)C(C)C (stereo not drawn) [Compound 52] (Pyrazinecarbonyl-VV[Hyp]([CO-X3])[Abu]-aldehyde; configuration not given here) = 4.00 to 6.00
CCC(C=O)NC(=O)C1CC(OCc2ccccc2)CN1C(=O)C(NC(=O)c1c(O)ccc2ccccc12)C(C)C (stereo not drawn) = 4.00 to 6.00
CCC(C=O)NC(=O)C1CC(OCc2ccccc2)CN1C(=O)C(NC(=O)Cc1ccccc1[N+](=O)[O-])C(C)C (stereo not drawn) = < 4.00

input: Bench note: what pKi did CCC(C=O)NC(=O)C1CC(OCc2ccccc2)CN1C(=O)C(NC(=O)C(NC(C)=O)C(C)C)C(C)C (stereo not drawn) [Compound 81] (Ac-VV[Hyp](Bn)[Abu]-aldehyde; configuration not given here) show?
output: 4.00 to 6.00

input: For the compound shown here, CCC(C=O)NC(=O)C1CC(NC(=O)C(=O)c2ccccc2)CN1C(=O)C(NC(=O)C(NC(=O)c1cnccn1)C(C)C)C(C)C (stereo not drawn) , give the reported pKi.
output: 4.00 to 6.00

input: Consider the compound CCCNC(=O)C(=O)C(CC)NC(=O)C(CC(C)C)NC(=O)C(NC(=O)C(NC(=O)C(CC(=O)O)NC(=O)C(CCC(=O)O)NC(C)=O)C(C)C)C(C)C (stereo not drawn) [Compound 105] (Ac-EDVVL[ξ(3-Amino-2-oxopentanoyl)]-NHPr; configuration not given here) and give its measured pKi.
output: > 6.00

input: Bench note: what pKi did CCC(C=O)NC(=O)C1CC(OC(=O)Nc2cc(OC)ccc2OC)CN1C(=O)C(NC(=O)C(NC(=O)c1cnccn1)C(C)C)C(C)C (stereo not drawn) [Compound 41] (Pyrazinecarbonyl-VV[Hyp]([CO-X9])[Abu]-aldehyde; configuration not given here) show?
output: 4.00 to 6.00

---

- SYSTEM TESTED: HCV NS3 protease (Hepatitis C virus genotype 1a)
- Construct: more particularly HCV NS3 proteases
- METHOD NOTES: Enzyme inhibition of HCV NS3 serine protease (cleavage of peptide substrate / EDVV AbuC-p-nitroanilide, with or without NS4A)
- Format: biochemical
- PROTOCOL CONDITIONS: Enzyme inhibition data; Ki from rate vs [inhibitor] plots, Morrison tight binding competitive inhibition fit; 30 C, pH 7.8; read-out: Ki
Starred links: 1 amine or outer side, 2 acyl side, 3 side chain; linkers in the order of their positions; H or OH if unused. Non-standard residues stand in square brackets, D forms with d. Residues, ends and D or L forms follow the SMILES beside them. ξ: configuration not given here. *: point of attachment. ξ(3-Amino-2-oxopentanoyl) = CCC(N[*:1])C(=O)C(=O)[*:2]; X41 = CCC(N*)C(=O)c1nc2ccccc2o1; X44 = O=C(c1ccc2cnccc2n1)*; Abu = CC[CH](N)C(=O)O; X16 = C1COC(CN*)C1
MEASURED ENDPOINT: Ki

Below, each entry is followed by its recorded Ki result.
CCC(C=O)NC(=O)C(CC(C)C)NC(=O)C(NC(=O)C(NC(=O)c1ccc2cnccc2n1)C(C)C)C(C)C (centres unmarked) [Compound 89] (X44-VVL[Abu]-aldehyde; configuration not given here) = 1 to 100 µM
CCC(C=O)NC(=O)C1CC(OCc2ccccc2)CN1C(=O)C(NC(=O)C1CCCC1c1ccccc1)C(C)C (centres unmarked) = > 100 µM
CCC(NC(=O)C(CC(C)C)NC(=O)C(NC(=O)C(NC(=O)C(CC(=O)O)NC(=O)C(N)CCC(=O)O)C(C)C)C(C)C)C(=O)c1nc2ccccc2o1 (centres unmarked) [Compound 124] (H-EDVVL-X41; configuration not given here) = 1 to 100 µM
CCC(NC(=O)C(CC(C)C)NC(=O)C(NC(=O)C(NC(=O)c1cnccn1)C(C)C)C(C)C)C(=O)C(=O)N[C@@H](C)c1ccccc1 (some centres unmarked) = 1 to 100 µM

input: Request the reported Ki associated with CCC(NC(=O)C(CC(C)C)NC(=O)C(NC(=O)C(NC(=O)C(CC(=O)O)NC(=O)C(CCC(=O)O)NC(C)=O)C(C)C)C(C)C)C(=O)C(=O)NCC1CCCO1 (centres unmarked) [Compound 108] (Ac-EDVVL[ξ(3-Amino-2-oxopentanoyl)]-X16; configuration not given here)
output: < 1 µM
